- Test system: A498 complex spheroid viability
- test-protocol: Anticancer human tumor A498 cell line growth inhibition;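 further: spheroids exposed to agents for seven days before readout; 100% = DMSO vehicle-treated spheroids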
- condition-details: second compound 10 µM; first compound 0.1 µM; stronger effect = lower value
Entries are sorted into classes by viability, T/C as follows: lower level = under 70%, middle level = from 70% up to 80%, upper level = 80% and over

>  <compound>
CC(C)CC(NC(=O)C(Cc1ccccc1)NC(=O)c1cnccn1)B(O)O (stereo not drawn) + NC1CC1c1ccc(-c2cccc(O)c2)cc1

>  <category>
lower level

$$$$

# input Where would COc1ccc([C@@H](O)c2cc(-c3ncnc4cc(N5CCOCC5)ccc34)c(F)cc2Cl)nn1 + NC1CCC(NC2CC2c2ccccc2)CC1 land among the classes by reported viability, T/C?
# output lower level

# input Classify this compound: CC1COCCN1c1cc(C2(S(C)(=N)=O)CC2)nc(-c2ccnc3[nH]ccc23)n1 (stereo not drawn) + NC1CCC(NC2CC2c2ccccc2)CC1
# output middle level

# input For the record CC1(C)CCC(CN2CCN(c3ccc(C(=O)NS(=O)(=O)c4ccc(NCC5CCOCC5)c([N+](=O)[O-])c4)c(Oc4cnc5[nH]ccc5c4)c3)CC2)=C(c2ccc(Cl)cc2)C1 + NC1CCC(NC2CC2c2ccccc2)CC1 , report the class its viability, T/C corresponds to.
# output middle level

# input Form field 'band' for CC1COCCN1c1cc(-c2ccnn2C)c2ccnc(-c3ccn[nH]3)c2n1 (stereo not drawn) + NC1CC1c1ccc(-c2cccc(O)c2)cc1
# output lower level

# input In plain terms, what class is CC1(C)CCC(CN2CCN(c3ccc(C(=O)NS(=O)(=O)c4ccc(NCC5CCOCC5)c([N+](=O)[O-])c4)c(Oc4cnc5[nH]ccc5c4)c3)CC2)=C(c2ccc(Cl)cc2)C1 + NC1CC1c1ccc(-c2cccc(O)c2)cc1 ?
# output upper level

====

// values below are reported viability, T/C
- System: A498 complex spheroid viability
- test-protocol: Anticancer human tumor A498 cell line growth inhibition;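 further: spheroids exposed to agents for seven days before readout; 100% = DMSO vehicle-treated spheroids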
- condition-details: second compound 10 µM; first compound 0.1 µM; stronger effect = lower value

See these solved cases before continuing.
>  <molecule>
Cn1ncnc1C1c2n[nH]c(=O)c3cc(F)cc(c23)NC1c1ccc(F)cc1 (configuration not stated) + NC1CC1c1ccc(-c2cccc(O)c2)cc1

>  <viability, T/C>
78.4%

$$$$
>  <molecule>
CC(C)c1c(-c2ccccc2)nc2c(C#N)c[nH]n2c1=O + NC1CCC(NC2CC2c2ccccc2)CC1

>  <viability, T/C>
69.3%

$$$$
>  <molecule>
Nc1ncn(C2CC(O)C(CO)O2)c(=O)n1 (configuration not stated) + NC1CC1c1ccc(-c2cccc(O)c2)cc1

>  <viability, T/C>
101%

$$$$
>  <molecule>
O=C(c1cc(Cc2n[nH]c(=O)c3ccccc23)ccc1F)N1CCN(C(=O)C2CC2)CC1 + NC1CC1c1ccc(-c2cccc(O)c2)cc1

>  <viability, T/C>
105%

$$$$
>  <molecule>
Cn1ncnc1C1c2n[nH]c(=O)c3cc(F)cc(c23)NC1c1ccc(F)cc1 (configuration not stated) + NC1CCC(NC2CC2c2ccccc2)CC1

>  <viability, T/C>
65.3%

$$$$

Form field viability, T/C, entry CC(C)c1c(-c2ccccc2)nc2c(C#N)c[nH]n2c1=O + NC1CC1c1ccc(-c2cccc(O)c2)cc1 : 92%

// COc1ccc([C@@H](O)c2cc(-c3ncnc4cc(N5CCOCC5)ccc34)c(F)cc2Cl)nn1 + NC1CC1c1ccc(-c2cccc(O)c2)cc1 : viability, T/C value = 42.5%
